- Test system: IgE
- procedure.summary: Determination of Igs produced in in vitro culture: inhibition of IgE secreted by spleen cells (adoptive secondary immune response to DNP-As), ELISA
- Format: cell-based, BALB/c mice
- conditions: Mus musculus, 96 h, 1.0 μg/ml, 4 days culture
- Protocol: Determination of Igs produced in in vitro culture BALB/c mice were immunized intraperitoneally with 5 μg of DNP-As adsorbed in 4 mg aluminum hydroxide gel. […] IgE and IgG secreted into the culture supernatant was each determined correspondingly by ELISA and the inhibitory effect was calculated according to the following equation. […]
Classify by measured inhibition at 1 µg/mL: Yes if it is equal to or exceeds 70%, No if it is smaller.

* CSc1c(C#N)c(=O)n2cccc(C)c2c1C(=O)N1CCC(c2ccccc2)CC1 (single isomer, unassigned) [S-81A] | No
* CSc1c(C#N)c(=O)n2ccccc2c1C(=O)OCCCC1CCCCC1 | Yes
* CSc1c(C#N)c(=O)n2ccc(C)cc2c1C(=O)OCCCc1ccccc1 | No
* CSc1c(C#N)c(=O)n2ccccc2c1C(=O)N(Cc1ccccc1)Cc1ccccc1 | No
* CSc1c(C#N)c(=O)n2ccccc2c1C(=O)CC1CCCCC1 | No
* CSc1c(C#N)c(=O)n2ccccc2c1C(=O)OCc1cccc2ccccc12 | Yes
* CSc1c(C#N)c(=O)n2ccc(C)cc2c1C(=O)OCCc1ccccc1 | No
* CSc1c(C#N)c(=O)n2ccccc2c1C(=O)OCCCOc1ccccc1 | Yes
* COc1cccc(COC(=O)c2c(SC)c(C#N)c(=O)n3ccccc23)c1 | No
* CSc1c(C#N)c(=O)n2ccccc2c1C(=O)OCCc1ccccc1 | No
* CSc1c(C#N)c(=O)n2ccccc2c1C(=O)OC(C)Cc1ccccc1 (stereo not shown) | Yes
* CSc1c(C#N)c(=O)n2ccccc2c1C(=O)CCCc1ccccc1 | No
* CSc1c(C#N)c(=O)n2ccccc2c1C(=O)CCCCc1ccccc1 | Yes
* CSc1c(C#N)c(=O)n2ccccc2c1C(=O)OCc1ccc(Br)cc1 | Yes
* CSc1c(C#N)c(=O)n2ccccc2c1C(=O)OCCCCc1ccccc1 | Yes
* CSc1c(C#N)c(=O)n2ccccc2c1C(=O)OC(C)CCc1ccccc1 (stereo not shown) | Yes
* CSc1c(C#N)c(=O)n2ccccc2c1C(=O)OC(C)c1ccc(C#N)cc1 (stereo not shown) | No
* CSc1c(C#N)c(=O)n2ccccc2c1C(=O)N1CCC(Cc2ccccc2)CC1 (single isomer, unassigned) [S-82A] | No

###

Listing of entries alongside the reported inhibition at 5 µg/mL.
- Tested on: IgG
- procedure.summary: Determination of Igs produced in in vitro culture: inhibition of IgG secreted by spleen cells (adoptive secondary immune response to DNP-As), ELISA
- Assay type: cell-based, BALB/c mice
- conditions: Mus musculus, 96 h, 5.0 μg/ml, 4 days culture
experimental.endpoint: inhibition at 5 µg/mL (%)

- CSc1c(C#N)c(=O)n2ccccc2c1C(=O)OCCCc1ccccc1 [S-45]: 16
- CSc1c(C#N)c(=O)n2ccccc2c1C(=O)N1CCC2CCCCC21 (single isomer, unassigned) [S-85A]: 23
- CSc1c(C#N)c(=O)n2ccccc2c1C(=O)OC1CCC1 [S-13]: 9
- CSc1c(C#N)c(=O)n2ccccc2c1C(=O)O[C@H]1CC[C@H](O)CC1 [S-16]: 14
- CSc1c(C#N)c(=O)n2ccccc2c1C(=O)OC1CCCC1 [S-12]: 32
- CSc1c(C#N)c(=O)n2ccccc2c1C(=O)OC1CCCCCC1 [S-19]: 27
- CSc1c(C#N)c(=O)n2ccccc2c1C(=O)N1CCN(Cc2ccccc2)CC1 [S-90]: 14
- CSc1c(C#N)c(=O)n2ccccc2c1C(=O)N1CCc2ccccc2C1 [S-87]: 36
- CSc1c(C#N)c(=O)n2ccccc2c1C(=O)OC1C2CC3CC(C2)CC1C3 (stereo not drawn) [S-21]: 47

###

- Test system: IgG
- procedure.summary: Determination of Igs produced in in vitro culture: inhibition of IgG secreted by spleen cells (adoptive secondary immune response to DNP-As), ELISA
- Type: cell-based, BALB/c mice
- conditions: Mus musculus, 96 h, 5.0 μg/ml, 4 days culture
Classify by measured inhibition at 5 µg/mL: True if it is equal to or exceeds 30%, False if it is smaller.

• CSc1c(C#N)c(=O)n2ccccc2c1C(=O)Cc1ccc(Cl)cc1 [S-96] = False
• COC(=O)c1ccc(CNC(=O)c2c(SC)c(C#N)c(=O)n3ccccc23)cc1 [S-77] = False
• C=CCN(C(=O)c1c(SC)c(C#N)c(=O)n2ccccc12)C1CCCCC1 [S-70] = True
• CSc1c(C#N)c(=O)n2ccccc2c1C(=O)NCCCc1ccccc1 [S-71] = True

###

Listing of entries alongside the reported Inhibition % of IgE.
- Test system: IgE
- procedure.summary: Determination of Igs produced in in vitro culture: inhibition of IgE secreted by spleen cells (adoptive secondary immune response to DNP-As), ELISA
- Assay type: cell-based, BALB/c mice
- conditions: 1.0 μg/ml, 4 days culture
experimental.endpoint: Inhibition % of IgE (%)

• CSc1c(C#N)c(=O)n2cccc(C)c2c1C(=O)N1CCC(c2ccccc2)CC1 (single isomer, unassigned) [S-81B] = 50
• CSc1c(C#N)c(=O)n2ccccc2c1C(=O)CC1CCN(c2ccccc2)CC1 [S-109] = 77
• CSc1c(C#N)c(=O)n2ccccc2c1C(=O)CCCc1cccs1 [S-106] = 61
• N#Cc1c(SCc2ccccc2)c(C(=O)N2CCC(Cc3ccccc3)CC2)c2ccccn2c1=O (single isomer, unassigned) [S-84B] = 58

These data points were gathered from patent US4877795A.
